Experiment: Cmax in Sprague-Dawley rat at 2 mg/kg, iv
Assay type: ADME, organism-based
Parameters: dose 2 mg/kg, route intravenous
Settings: in vivo
measure: Cmax (ng/mL)
Record the value in ng/mL, omitting the unit from your answer.

Report Cmax for COc1ccc2c(OCC[C@@H]3NC(=O)N(C)CCCC/C=C\[C@@H]4C[C@@]4(C(=O)NS(=O)(=O)C4(C)CC4)NC3=O)cc(-c3nc(C(C)C)cs3)nc2c1Cl please.
2670

* * *

Experiment: Drug elimination in Sprague-Dawley rat at 2 mg/kg, iv
Type: ADME, organism-based
Settings: in vivo
measure: k el (s⁻¹)
The figure you give is taken to be in s⁻¹; do not add the unit.

Query: k el; subject: COc1ccc2c(OCC[C@@H]3NC(=O)N(C)CCCC/C=C\[C@@H]4C[C@@]4(C(=O)NS(=O)(=O)C4(C)CC4)NC3=O)cc(-c3nc(C(C)C)cs3)nc2c1Cl
0.000158

* * *

For each record, write down the corresponding pEC50.
Test system: Hepatitis C virus
Test: Antiviral activity against HCV Con1 infected in human GS4.1 cells containing HCV Con1 subgenomic replicon assessed as reduction in NS5A protein expression by ELISA method
Format: functional, cell-based, Hepacivirus hominis
Details: genotype 1b Con1
Remember, pEC50 is on a log scale: it is -log10 of the molar concentration.

Any idea what its pEC50 is? The molecule is COc1ccc2c(OCC[C@@H]3NC(=O)N(C)CCCC/C=C\[C@@H]4C[C@@]4(C(=O)NS(=O)(=O)C4(C)CC4)NC3=O)cc(-n3ccc(C(C)C)n3)nc2c1Cl
7.36

Which value of pEC50 has been reported for C#CC1(S(=O)(=O)NC(=O)[C@@]23C[C@H]2/C=C\CCCCN(C)C(=O)N[C@@H](CCOc2cc(-c4nc(C(C)C)cs4)nc4c(Cl)c(OC)ccc24)C(=O)N3)CC1 in the records?
7.54

What value of pEC50 has been recorded for this entry: COc1ccc2c(OCC[C@@H]3NC(=O)N(C)CCCC/C=C\[C@@H]4C[C@@]4(C(=O)NS(=O)(=O)C4CC4)NC3=O)cc(-c3nc(C(C)C)cs3)nc2c1F
5.83

* * *

Experiment: Intrinsic clearance in rat liver microsomes incubated for 2 hrs
Assay type: ADME
Settings: read-out: CLH
measure: microsomal CLint (µL/min/mg)
Note: unit µL/min/mg is implicit; provide only the numeric part.

Find the recorded microsomal CLint belonging to COc1ccc2c(OCC[C@@H]3NC(=O)N(C)CCCC/C=C\[C@@H]4C[C@@]4(C(=O)NS(=O)(=O)C4CC4)NC3=O)cc(-c3nc(C(C)C)cs3)nc2c1Cl and report it.
36.6

Suppose we examine the molecule COc1ccc2c(OCC[C@@H]3NC(=O)N(C)CCCC/C=C\[C@@H]4C[C@@]4(C(=O)NS(=O)(=O)C4(C)CC4)NC3=O)cc(-n3ccc(C(C)C)n3)nc2c1C ; what microsomal CLint value has been reported?
21

Request the reported microsomal CLint associated with COc1ccc2c(OCC[C@@H]3NC(=O)N(C)CCCC/C=C\[C@@H]4C[C@@]4(C(=O)NS(=O)(=O)C4(C)CC4)NC3=O)cc(-c3nc(C(C)C)cs3)nc2c1Br
16.5

Any idea what its microsomal CLint is? The molecule is COc1ccc2c(OCC[C@@H]3NC(=O)N(C)CCCC/C=C\[C@@H]4C[C@@]4(C(=O)NS(=O)(=O)C4(C)CC4)NC3=O)cc(-c3nc(C(C)C)cs3)nc2c1Cl
20.7

Would you kindly share the measured microsomal CLint for COc1ccc2c(OCC[C@@H]3NC(=O)N(C)CCCC/C=C\[C@@H]4C[C@@]4(C(=O)NS(=O)(=O)C4(C)CC4)NC3=O)cc(-c3nc(C(C)C)cs3)nc2c1C ?
9.3

Data request, read-out microsomal CLint, for COc1ccc2c(OCC[C@@H]3NC(=O)N(C)CCCC/C=C\[C@@H]4C[C@@]4(C(=O)NS(=O)(=O)C4(C)CC4)NC3=O)cc(-n3ccc(C(F)(F)F)n3)nc2c1C
14.4

I am curious: what microsomal CLint value has been reported for COc1ccc2c(OCC[C@@H]3NC(=O)N(C)CCCC/C=C\[C@@H]4C[C@@]4(C(=O)NS(=O)(=O)C4(C)CC4)NC3=O)cc(-c3nc(C(C)C)cs3)nc2c1 ?
155

* * *

Experiment: Volume of distribution in Sprague-Dawley rat at 2 mg/kg, iv
Type: ADME, organism-based
Conditions: in vivo
measure: Vd (L/kg)
State the answer as a number, implicitly in L/kg.

So what does the record say about Vd for COc1ccc2c(OCC[C@@H]3NC(=O)N(C)CCCC/C=C\[C@@H]4C[C@@]4(C(=O)NS(=O)(=O)C4(C)CC4)NC3=O)cc(-c3nc(C(C)C)cs3)nc2c1Cl ?
2.42

* * *

Test: Tmax in Sprague-Dawley rat at 10 mg/kg, po
Format: ADME, organism-based
Details: in vivo
measure: Tmax (min)
Please respond with the number in min and leave the unit unwritten.

Reported Tmax for COc1ccc2c(OCC[C@@H]3NC(=O)N(C)CCCC/C=C\[C@@H]4C[C@@]4(C(=O)NS(=O)(=O)C4(C)CC4)NC3=O)cc(-c3nc(C(C)C)cs3)nc2c1Cl : what is it?
45

* * *

Would you mind telling me the reported microsomal CLint of each entry?
Experiment: Intrinsic clearance in dog liver microsomes incubated for 2 hrs
Assay type: ADME, Canis lupus familiaris
Conditions: read-out: CLH
Number in µL/min/mg, nothing else.

Looking for the measured microsomal CLint of COc1ccc2c(OCC[C@@H]3NC(=O)N(C)CCCC/C=C\[C@@H]4C[C@@]4(C(=O)NS(=O)(=O)C4(C)CC4)NC3=O)cc(-c3nc(C(C)C)cs3)nc2c1Cl , can you help?
19.5

What measured microsomal CLint goes with COc1ccc2c(OCC[C@@H]3NC(=O)N(C)CCCC/C=C\[C@@H]4C[C@@]4(C(=O)NS(=O)(=O)C4CC4)NC3=O)cc(-c3nc(C(C)C)cs3)nc2c1Cl ?
25

* * *

Please respond with reported EC50 for every item in the list.
System: Hepatitis C virus
Test: Antiviral activity against HCV Con1 infected in human GS4.1 cells containing HCV Con1 subgenomic replicon assessed as reduction in NS5A protein expression by ELISA method
Format: functional, cell-based, Hepacivirus hominis
Details: genotype 1b Con1

Value lookup for EC50; key = COc1ccc2c(OCC[C@@H]3NC(=O)N(C)CCCC/C=C\[C@@H]4C[C@@]4(C(=O)NS(=O)(=O)C4(C)CC4)NC3=O)cc(-n3ccc(C(F)(F)F)n3)nc2c1C
35 nM

Which EC50 is listed for COc1ccc2c(OCC[C@@H]3NC(=O)N(C)CCCC/C=C\[C@@H]4C[C@@]4(C(=O)NS(=O)(=O)N4CCOCC4)NC3=O)cc(-c3nc(C(C)C)cs3)nc2c1Cl ?
> 750 nM

What measured EC50 goes with COc1ccc2c(OCC[C@@H]3NC(=O)N(C)CCCC/C=C\[C@@H]4C[C@@]4(C(=O)NS(=O)(=O)C4(C)CC4)NC3=O)cc(-c3nc(C(C)C)cs3)nc2c1Cl ?
28.7 nM

* * *

Assay: Intrinsic clearance in human liver microsomes incubated for 2 hrs
Type: ADME
Conditions: read-out: CLH
measure: microsomal CLint
Reply with the number, then its unit.

What value of microsomal CLint has been reported for the following compound? COc1ccc2c(OCC[C@@H]3NC(=O)N(C)CCCC/C=C\[C@@H]4C[C@@]4(C(=O)NS(=O)(=O)C4CC4)NC3=O)cc(-c3nc(C(C)C)cs3)nc2c1Cl
263 µL/min/mg

Any idea what its microsomal CLint is? The compound is COc1ccc2c(OCC[C@@H]3NC(=O)N(C)CCCC/C=C\[C@@H]4C[C@@]4(C(=O)NS(=O)(=O)C4(C)CC4)NC3=O)cc(-c3nc(C(C)C)cs3)nc2c1Cl
215 µL/min/mg

* * *

Assay: Inhibition of full length HCV 1b Con1 NS3/4A protease using HiLyte Fluor 610 peptide substrate by biochemical FRET assay
Parameters: species or system Hepatitis C virus (isolate Con1)
Would you mind telling me the reported IC50 of each entry?
Record the value in nM, omitting the unit from your answer.

Form field: reported IC50 of COc1ccc2c(OCC[C@@H]3NC(=O)N(C)CCCC/C=C\[C@@H]4C[C@@]4(C(=O)NS(=O)(=O)N4CCC(F)(F)C4)NC3=O)cc(-c3nc(C(C)C)cs3)nc2c1Cl
165

May I ask what IC50 has been recorded for COc1ccc2c(OCC[C@@H]3NC(=O)N(C)CCCC/C=C\[C@@H]4C[C@@]4(C(=O)NS(=O)(=O)C4(C)CC4)NC3=O)cc(-n3ccc(C(F)(F)F)n3)nc2c1Cl ?
1.1

Form field: reported IC50 of COc1ccc2c(OCC[C@@H]3NC(=O)N(C)CCCCC/C=C\[C@@H]4C[C@@]4(C(=O)NS(=O)(=O)C4CC4)NC3=O)cc(-c3ccccc3)nc2c1
41
